Entries annotated with measured pIC50
Molecular target: Metabotropic glutamate receptor 5 (Rattus norvegicus, UniProt P31424)
Sequence (P31424 whole entry): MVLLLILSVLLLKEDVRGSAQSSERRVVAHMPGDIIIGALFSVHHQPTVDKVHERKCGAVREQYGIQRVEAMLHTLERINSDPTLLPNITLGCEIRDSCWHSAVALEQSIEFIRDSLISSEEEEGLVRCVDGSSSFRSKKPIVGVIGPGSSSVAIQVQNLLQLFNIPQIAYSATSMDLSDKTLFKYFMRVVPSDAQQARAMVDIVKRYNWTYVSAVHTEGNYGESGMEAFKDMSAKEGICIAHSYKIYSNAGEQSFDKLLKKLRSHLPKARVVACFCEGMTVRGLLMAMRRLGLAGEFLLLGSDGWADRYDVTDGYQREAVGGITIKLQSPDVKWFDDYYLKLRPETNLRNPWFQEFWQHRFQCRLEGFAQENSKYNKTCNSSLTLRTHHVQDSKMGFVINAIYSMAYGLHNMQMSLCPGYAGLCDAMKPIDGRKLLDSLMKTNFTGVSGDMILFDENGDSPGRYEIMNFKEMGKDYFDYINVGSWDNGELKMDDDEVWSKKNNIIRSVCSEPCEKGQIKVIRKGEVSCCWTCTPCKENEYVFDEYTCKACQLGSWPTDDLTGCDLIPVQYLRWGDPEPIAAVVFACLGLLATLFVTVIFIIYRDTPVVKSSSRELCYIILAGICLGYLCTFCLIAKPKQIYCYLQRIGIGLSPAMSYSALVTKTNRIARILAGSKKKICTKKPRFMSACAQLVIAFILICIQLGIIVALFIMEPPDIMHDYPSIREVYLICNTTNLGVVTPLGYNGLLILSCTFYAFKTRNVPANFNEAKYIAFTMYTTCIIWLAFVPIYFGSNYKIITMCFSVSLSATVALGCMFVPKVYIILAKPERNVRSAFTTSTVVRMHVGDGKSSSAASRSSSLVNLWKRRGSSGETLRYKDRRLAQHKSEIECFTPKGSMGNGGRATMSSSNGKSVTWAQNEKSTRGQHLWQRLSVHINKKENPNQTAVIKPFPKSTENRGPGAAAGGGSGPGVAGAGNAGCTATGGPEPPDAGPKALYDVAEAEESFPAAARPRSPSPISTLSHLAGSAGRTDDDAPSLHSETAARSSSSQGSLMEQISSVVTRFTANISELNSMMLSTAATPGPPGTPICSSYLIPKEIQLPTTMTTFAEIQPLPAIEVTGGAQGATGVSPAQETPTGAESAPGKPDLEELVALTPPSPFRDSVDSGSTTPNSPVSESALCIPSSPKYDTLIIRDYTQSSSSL
Test: Antagonist activity at rat mGluR5 expressed in HEK293A cells assessed as inhibition of glutamate-induced calcium mobilization
pIC50: −log10 of the molar value.

- smiles_notation: "C[C@@H]1CN(C(=O)C23CC4CC(CC(C4)C2)C3)CCN1c1ccccn1"
  pIC50: "< 5.00"

Lookup: Give the measured pIC50 of C[C@@H]1CN(c2ccccn2)CCN1C(=O)C12CC3CC(CC(C3)C1)C2 .
Found: < 5.00

====

Assay: Ratio of drug level in brain to plasma in Sprague-Dawley rat at 10 mg/kg, po after 30 mins
Format: ADME, organism-based
Parameters: dose 10 mg/kg, route oral
Conditions: read-out: BPR
property_measured: Kp at 0.5 h
Form field (numeric): enter value without unit.

Lookup: Please look up its Kp at 0.5 h: C[C@@H]1CN(c2cccnc2C#N)CCN1C(=O)C12CC3CC(CC(C3)C1)C2
Found: 1.4

====

System: Plasma
Test: Fraction unbound in rat plasma by equilibrium dialysis
Assay type: ADME, cell-free
Could you please mark met for values of Fu below 0.02 and not met for values at or above it?

Lookup: Would you kindly verify if Fu of C[C@@H]1CN(c2ccccn2)CCN1C(=O)C12CC3CC(CC(C3)C1)C2 is strictly less than 0.02?
Found: met

Lookup: C[C@@H]1CN(c2cccnc2C#N)CCN1C(=O)C12CC3CC(CC(C3)C1)C2 ?
Found: not met

Lookup: Same lookup for C[C@@H]1CN(c2ccncc2C#N)CCN1C(=O)C12CC3CC(CC(C3)C1)C2 , please.
Found: not met

Lookup: Please answer likewise for C[C@@H]1CN(C(=O)C23CC4CC(CC(C4)C2)C3)CCN1c1ccccn1
Found: met

Lookup: Query C[C@@H]1CN(c2ccc(F)cn2)CCN1C(=O)C12CC3CC(CC(C3)C1)C2 next
Found: met

====

Target: Metabotropic glutamate receptor 1 (Homo sapiens, UniProt Q13255)
Test: Negative allosteric modulation of human mGluR1 expressed in HEK293A cells assessed as inhibition of glutamate-induced calcium mobilization at 30 uM relative to glutamate
Format: functional, cell-based
Details: HEK293-A
Sequence (Q13255 19-1194 limits assumed): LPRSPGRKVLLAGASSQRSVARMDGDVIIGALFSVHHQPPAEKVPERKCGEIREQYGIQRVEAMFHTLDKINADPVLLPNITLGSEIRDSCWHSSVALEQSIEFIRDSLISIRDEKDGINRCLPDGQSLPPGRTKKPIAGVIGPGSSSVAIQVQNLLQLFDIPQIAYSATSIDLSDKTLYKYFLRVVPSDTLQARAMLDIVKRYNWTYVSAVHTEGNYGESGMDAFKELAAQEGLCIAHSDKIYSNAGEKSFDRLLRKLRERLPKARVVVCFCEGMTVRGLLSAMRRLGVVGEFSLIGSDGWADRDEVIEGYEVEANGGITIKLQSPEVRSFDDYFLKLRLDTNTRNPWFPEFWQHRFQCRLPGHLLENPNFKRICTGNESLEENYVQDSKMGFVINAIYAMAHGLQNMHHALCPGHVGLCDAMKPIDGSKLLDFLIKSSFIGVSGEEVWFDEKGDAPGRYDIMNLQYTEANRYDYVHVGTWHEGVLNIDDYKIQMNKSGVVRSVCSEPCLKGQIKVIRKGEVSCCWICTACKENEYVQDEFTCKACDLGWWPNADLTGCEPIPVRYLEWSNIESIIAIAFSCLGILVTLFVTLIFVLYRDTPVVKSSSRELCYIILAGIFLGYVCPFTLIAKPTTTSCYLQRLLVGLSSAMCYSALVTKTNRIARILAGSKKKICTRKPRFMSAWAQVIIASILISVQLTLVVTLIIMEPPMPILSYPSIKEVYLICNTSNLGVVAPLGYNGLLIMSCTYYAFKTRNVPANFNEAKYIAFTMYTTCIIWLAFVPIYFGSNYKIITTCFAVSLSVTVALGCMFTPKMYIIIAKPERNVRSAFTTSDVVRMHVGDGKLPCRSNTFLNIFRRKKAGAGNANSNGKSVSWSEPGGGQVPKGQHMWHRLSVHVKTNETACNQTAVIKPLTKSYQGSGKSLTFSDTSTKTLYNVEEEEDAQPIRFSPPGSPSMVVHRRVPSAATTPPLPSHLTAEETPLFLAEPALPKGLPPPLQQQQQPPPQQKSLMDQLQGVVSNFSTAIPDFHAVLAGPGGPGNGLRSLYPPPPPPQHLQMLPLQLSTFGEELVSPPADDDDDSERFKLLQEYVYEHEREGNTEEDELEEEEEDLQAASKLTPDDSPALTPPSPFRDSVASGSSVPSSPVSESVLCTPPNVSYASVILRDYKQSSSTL
Each entry below lists one item and its recorded inhibition value.
Give a bare numeral; the unit % is implied.

Illustrative cases are given below, each with its answer.
- compound: "C[C@@H]1CN(c2ccccn2)CCN1C(=O)C1CCCCCC1"
  reported_value: 29.9
- compound: "C[C@@H]1CN(c2ccccn2)CCN1C(=O)C12C3C4C5C3C1C5C42 (stereo not given in full)"
  reported_value: 62.7
- compound: "C[C@@H]1CN(c2ccccn2)CCN1C(=O)[C@H]1CC[C@H](C(C)(C)C)CC1"
  reported_value: 0.3
- compound: "C[C@@H]1CN(c2ncccc2C#N)CCN1C(=O)C12CC3CC(CC(C3)C1)C2"
  reported_value: 3.3
- compound: "C[C@@H]1CN(c2ncccc2F)CCN1C(=O)C12CC3CC(CC(C3)C1)C2"
  reported_value: 2.4

Moving on to the next compound.
Lookup: Give the measured inhibition of C[C@@H]1CN(c2ccccn2)CCN1C(=O)C1CC2CCCC(C2)C1 (stereo not given in full) .
Found: 1.3

====

Assay: Mean residence time in Sprague-Dawley rat at 0.2 mg/kg, iv
Settings: in vivo
property_measured: MRT (min)
All answers are understood in min, so give the number only.

Lookup: Report MRT for C[C@@H]1CN(c2cccnc2C#N)CCN1C(=O)C12CC3CC(CC(C3)C1)C2 please.
Found: 43

====

Assay: Half life in Sprague-Dawley rat at 0.2 mg/kg, iv
Format: ADME, organism-based
Set-up: dose 0.2 mg/kg, route intravenous
Conditions: in vivo
property_measured: half-life
Give the value; after it, write the unit.

Lookup: Query: half-life; subject: C[C@@H]1CN(c2cccnc2C#N)CCN1C(=O)C12CC3CC(CC(C3)C1)C2
Found: 55 min

====

Target: Metabotropic glutamate receptor 1 (Homo sapiens)
Experiment: Negative allosteric modulation of human mGluR1 expressed in HEK293A cells assessed as inhibition of glutamate-induced calcium mobilization
Sequence (Q13255 whole entry): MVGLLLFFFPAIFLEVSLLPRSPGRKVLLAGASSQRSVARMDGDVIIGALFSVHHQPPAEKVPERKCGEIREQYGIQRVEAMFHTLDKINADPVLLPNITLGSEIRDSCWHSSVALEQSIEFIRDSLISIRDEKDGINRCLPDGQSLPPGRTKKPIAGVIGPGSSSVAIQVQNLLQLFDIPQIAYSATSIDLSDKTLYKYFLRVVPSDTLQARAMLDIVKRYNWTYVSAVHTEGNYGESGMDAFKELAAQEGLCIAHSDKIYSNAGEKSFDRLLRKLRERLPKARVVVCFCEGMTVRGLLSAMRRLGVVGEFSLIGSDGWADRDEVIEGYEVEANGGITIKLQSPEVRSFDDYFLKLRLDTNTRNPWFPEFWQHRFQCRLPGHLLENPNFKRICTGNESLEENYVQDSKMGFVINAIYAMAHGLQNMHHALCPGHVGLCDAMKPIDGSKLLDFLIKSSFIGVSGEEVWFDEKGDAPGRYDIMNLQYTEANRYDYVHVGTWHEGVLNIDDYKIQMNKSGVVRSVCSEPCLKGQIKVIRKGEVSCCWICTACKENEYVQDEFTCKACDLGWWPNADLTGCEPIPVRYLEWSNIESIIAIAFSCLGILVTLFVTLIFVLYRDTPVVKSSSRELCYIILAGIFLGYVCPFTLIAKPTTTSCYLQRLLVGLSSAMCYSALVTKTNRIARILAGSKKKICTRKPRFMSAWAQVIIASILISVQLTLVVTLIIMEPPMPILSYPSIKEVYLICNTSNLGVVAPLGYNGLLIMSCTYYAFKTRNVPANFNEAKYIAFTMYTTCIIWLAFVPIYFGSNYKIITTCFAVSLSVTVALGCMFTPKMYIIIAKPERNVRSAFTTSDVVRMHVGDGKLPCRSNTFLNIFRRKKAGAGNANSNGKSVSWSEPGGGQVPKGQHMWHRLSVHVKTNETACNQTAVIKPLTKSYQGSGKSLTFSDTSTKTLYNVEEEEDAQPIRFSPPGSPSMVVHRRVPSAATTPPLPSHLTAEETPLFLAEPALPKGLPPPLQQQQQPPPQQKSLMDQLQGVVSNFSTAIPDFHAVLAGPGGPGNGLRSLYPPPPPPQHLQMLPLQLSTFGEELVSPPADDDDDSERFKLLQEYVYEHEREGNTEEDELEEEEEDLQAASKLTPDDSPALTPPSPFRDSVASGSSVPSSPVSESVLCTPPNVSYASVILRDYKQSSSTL
property_measured: IC50

Use the examples below as a reference point.
- molecule: "C[C@@H]1CN(C(=O)[C@H]2CC[C@H](C)CC2)CCN1c1ccccn1"
  IC50: "> 30000 nM"
- molecule: "C[C@@H]1CN(C(=O)C(C)(C)C)CCN1c1ccccn1"
  IC50: "> 30000 nM"
- molecule: "C[C@@H]1CN(C(=O)C23C4C5C6C4C2C6C53)CCN1c1ccccn1 (some centres undefined)"
  IC50: "> 30000 nM"
- molecule: "C[C@@H]1CN(C(=O)C23CC4CC(CC(C4)C2)C3)CCN1c1ccncn1"
  IC50: "> 10000 nM"
- molecule: "C[C@@H]1CN(c2ccccn2)CCN1C(=O)C(C)(C)C"
  IC50: "> 30000 nM"
- molecule: "C[C@@H]1CN(c2ccccn2)CCN1C(=O)C12C3C4C5C3C1C5C42 (some centres undefined)"
  IC50: "> 10000 nM"
- molecule: "C[C@@H]1CN(c2ccccn2)CCN1C(=O)[C@H]1CC[C@H](C)CC1"
  IC50: "> 10000 nM"
- molecule: "C[C@@H]1CN(c2ccncc2C#N)CCN1C(=O)C12CC3CC(CC(C3)C1)C2"
  IC50: "398 nM"
- molecule: "C[C@@H]1CN(C(=O)C23CC4CC(CC(C4)C2)C3)CCN1c1cccnc1"
  IC50: "> 10000 nM"
- molecule: "C[C@@H]1CN(c2cccnc2)CCN1C(=O)C12CC3CC(CC(C3)C1)C2"
  IC50: "596 nM"

Lookup: Field request: IC50 | item: C[C@@H]1CN(c2cccc(F)n2)CCN1C(=O)C12CC3CC(CC(C3)C1)C2
Found: 255 nM

Lookup: Follow-up item: C[C@@H]1CN(c2ccc(F)cn2)CCN1C(=O)C12CC3CC(CC(C3)C1)C2
Found: 414 nM

Lookup: Likewise for C[C@@H]1CN(C(=O)C2CC3CCCC(C3)C2)CCN1c1ccccn1 (some centres undefined) ?
Found: > 10000 nM

Lookup: Moving on to C[C@@H]1CN(c2ncccc2F)CCN1C(=O)C12CC3CC(CC(C3)C1)C2
Found: 712 nM

====

Molecular target: Metabotropic glutamate receptor 1 (Homo sapiens, UniProt Q13255)
Assay: Negative allosteric modulation of human mGluR1 expressed in HEK293A cells assessed as inhibition of glutamate-induced calcium mobilization at 30 uM relative to glutamate
Assay type: functional, cell-based
Details: HEK293-A
property_measured: inhibition (%)
// units = %; emit number, no label

Take a look at these entries with their results.
- smiles_notation: "O=C(N1CCN(c2nccs2)CC1)C12CC3CC(CC(C3)C1)C2"
  assay_target: "Metabotropic glutamate receptor 1 (Homo sapiens, UniProt Q13255)"
  property_measured: "inhibition"
  reported_value: 1.1
- smiles_notation: "C[C@@H]1CN(C(=O)C23CC4CC(CC(C4)C2)C3)CCN1c1cccnc1"
  assay_target: "Metabotropic glutamate receptor 1 (Homo sapiens, UniProt Q13255)"
  property_measured: "inhibition"
  reported_value: 32.3
- smiles_notation: "C[C@@H]1CN(C(=O)C23CC4CC(CC(C4)C2)C3)CCN1c1ccccc1C#N"
  assay_target: "Metabotropic glutamate receptor 1 (Homo sapiens, UniProt Q13255)"
  property_measured: "inhibition"
  reported_value: 5.3
- smiles_notation: "C[C@H]1CN(c2ccccn2)CCN1C(=O)C12CC3CC(CC(C3)C1)C2"
  assay_target: "Metabotropic glutamate receptor 1 (Homo sapiens, UniProt Q13255)"
  property_measured: "inhibition"
  reported_value: -1.4

Please turn your attention to the following entry.
Lookup: inhibition lookup needed for C[C@@H]1CN(c2ccccn2)CCN1C(=O)C1CCCCC1 , thanks.
Found: 51.8

====

Tested on: Plasma
Test: Fraction unbound in rat plasma by equilibrium dialysis
Format: ADME, cell-free
property_measured: Fu

- smiles_notation: "C[C@@H]1CN(c2cccc(F)n2)CCN1C(=O)C12CC3CC(CC(C3)C1)C2"
  Fu: 0.006
- smiles_notation: "C[C@@H]1CN(c2ccccc2C#N)CCN1C(=O)C12CC3CC(CC(C3)C1)C2"
  Fu: 0.003

From here, focus on the item given below.
Lookup: What value of Fu has been reported for the following compound? C[C@@H]1CN(c2ncccc2C#N)CCN1C(=O)C12CC3CC(CC(C3)C1)C2
Found: 0.016

====

Assay: Volume of distribution at steady state in Sprague-Dawley rat at 0.2 mg/kg, iv
Type: ADME, organism-based
Design: dose 0.2 mg/kg, route intravenous
Conditions: in vivo, read-out: Vdss
property_measured: Vd
The answer should read as a number with its unit following.

Lookup: Give the measured Vd of C[C@@H]1CN(c2cccnc2C#N)CCN1C(=O)C12CC3CC(CC(C3)C1)C2 .
Found: 2.2 L/kg
